B1: F1*; the commonest letter at each place (parent)
chain: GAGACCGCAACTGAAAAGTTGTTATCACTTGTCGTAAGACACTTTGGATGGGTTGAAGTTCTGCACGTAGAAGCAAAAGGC

variants of: B1; experiment: fraction ligated after 30 min (ligated reads / total reads); higher = more ligase activity; conditions: with F1*sub RNA substrate (template-directed ligation), 42 °C
test.readout: fraction ligated

Any idea what its fraction ligated is? The variant is GAGACCGCAACTGAAAAGTTGTTATCATTTGTCGAAAGACACTTTGGATGGGTTGAAGTTCTGCACGTAGAAGCAAAAGGC [C28T T35A]
0.802

Any idea what its fraction ligated is? The variant is GAGACCGCAACTGAAAAGTTGTTATCACGTGTCGTAAGACACTGTGGATGGGTTGAAGTTCTGCACGTAGAAGCAAAAGGC [T29G T44G]
0.791

Any idea what its fraction ligated is? The variant is GAGACCGCAACTGAAAAGTTGTTATCCCTTGTCGTAAGACACATTGGATGGGTTGAAGTTCTGCACGTAGAAGCAAAAGGC [A27C T43A]
0.844

Any idea what its fraction ligated is? The variant is GAGACCGCAACTGAAAAGTTGTTAGCACTTGTCGTTAGACACTTTGGATGGGTTGAAGTTCTGCACGTAGAAGCAAAAGGC [T25G A36T]
0.795

Any idea what its fraction ligated is? The variant is GAGACCGCAACTGAAAAGTTGTTATCACATGTCGTAAGACACTTTGGATGGGTTAAAGTTCTGCACGTAGAAGCAAAAGGC [T29A G55A]
0.84

Any idea what its fraction ligated is? The variant is GAGACCGCAACTGAAAAGTTGTTATCACTTAACGTAAGACACTTTGGATGGGTTGAAGTTCTGCACGTAGAAGCAAAAGGC [G31A T32A]
0.809

Any idea what its fraction ligated is? The variant is GAGACCGCAACTGAAAAGTTGTTATCACTTGTCGTAATACACTTTGGATCGGTTGAAGTTCTGCACGTAGAAGCAAAAGGC [G38T G50C]
0.134

Any idea what its fraction ligated is? The variant is GAGACCGCAACTGAAAAGTTGTTCTCACATGTCGTAAGACACTTTGGATGGGTTGAAGTTCTGCACGTAGAAGCAAAAGGC [A24C T29A]
0.747

Any idea what its fraction ligated is? The variant is GAGACCGCAACTGAAAAGTTGTTATCACTTGTCGTAAGTCACTTTGGAGGGGTTGAAGTTCTGCACGTAGAAGCAAAAGGC [A39T T49G]
0.769

Any idea what its fraction ligated is? The variant is GAGACCGCAACTGAAAAGTTGTTATCACTTGTCGTAAGACACTCTGGAGGGGTTGAAGTTCTGCACGTAGAAGCAAAAGGC [T44C T49G]
0.772
